Attribution: patent US3993771A

test system: Pyricularia oryzae; type: in vivo; conditions: curative, concentration of active ingredient 200 ppm
Task for the reader: assign each of the following compounds its reported Disease control.

- Compound: "CCC1CC(=Cc2ccccc2Cl)C(=O)O1 (stereo not drawn)"
  Disease control: "99%"
- Compound: "CCc1ccccc1C=C1CC(C)OC1=O (stereo not drawn)"
  Disease control: "100%"

// switching to the query compound
Prompt: // fetch Pyricularia oryzae Disease control for CC1CC(=Cc2ccccc2C(C)C)C(=O)O1 (stereo not drawn)
Response: 99%

* * *

system: Pyricularia oryzae; format: in vivo; conditions: curative, concentration of active ingredient 200 ppm
Field: Disease control. Provide a value for each of the molecules that follow.
Numbers only, in %.

- Molecule: "Cc1ccccc1C=C1CC(C)OC1=O (centres unmarked) [Compound 5]"
  Value measured: 100
- Molecule: "CC1CC(=Cc2ccccc2Cl)C(=O)O1 (stereo not drawn) [Compound 6, α-(o-chlorobenzylidene)-γ-valerolactone]"
  Value measured: 100
- Molecule: "CC1CC(=Cc2ccccc2Br)C(=O)O1 (centres unmarked) [Compound 7]"
  Value measured: 100

Items follow; give Disease control for each.
1. Cc1ccccc1C=C1CCOC1=O [Compound 1]
2. CC1CC(=Cc2c(F)cccc2Cl)C(=O)O1 (centres unmarked) [Compound 3]

Response:
1. 99
2. 100
